Origin of the recorded values: patent US20120302573A1

TEST SYSTEM: proMMP9(67-444;ΔFnII) (SEQ ID NO:5) (Homo sapiens, UniProt P14780, DEL216-390)
Construct: amino acid pairs including: 29-215/391-444, 67-215/391-444, and 20-215/391-445, respectively; start methionine (N)
ASSAY NOTES: ThermoFluor binding assay with proMMP9(67-444;ΔFnII)
Method: The experiments were carried out using instruments available from Johnson & Johnson Pharmaceutical Research & Development, LLC. TF dye used in all experiments was […] (1,8-ANS) (Invitrogen: A-47). Columns 12 and 24 were used as DMSO reference and contained no compound. […] Following compound dispense, protein and dye solutions were added to achieve the final assay volume of 3 μL. […]
QUANTITY: Kd (µM)

Solved cases below.
| STRUCTURE STRING | ENDPOINT UNIT | Kd |
| --- | --- | --- |
| COc1ccc(F)cc1Nc1nc(-c2sc(C)nc2C)c(C)s1 | µM | 20.6 |
| Cc1nc(N)sc1-c1csc(Nc2cccc(C(N)=O)c2)n1 | µM | 30.2 |
| COc1ccccc1Nc1nc(-c2cnc(N)s2)cs1 | µM | 3.67 |
| CC(=O)Nc1nc(C)c(-c2csc(Nc3ccccc3OC(F)(F)F)n2)s1 | µM | 0.645 |

A: COc1ccccc1Nc1nc(-c2sc(C)cc2C)cs1
B: CCOc1ccccc1Nc1nc(-c2cnc3ncccn23)cs1
C: CCC(=O)Nc1nc(C)c(-c2csc(Nc3ccccc3OC)n2)s1
Challenge: Task for the reader: rank each entry by its Kd, from the minimum upward. Use the labels to give the ranking in the order requested.
Response given: C, B, A
(C: 3.01 µM, B: 6.56 µM, A: 10 µM)

P: CCCOc1ccccc1Nc1nc(-c2cccnc2)cs1
Q: COc1c(Cl)cccc1Nc1nc(-c2sc(N)nc2C)cs1
Challenge: I'm curious whether P or Q has the smaller Kd number. Which is it? Identify your selection by its label.
Response given: Q
(Q: 8.84 µM, P: 16.3 µM)

----------
TEST SYSTEM: full-length proMMP9(1-707) activation by catalytic MMP3 (Homo sapiens, UniProt P14780, R574P)
ASSAY NOTES: ProMMP9/MMP3 DQ Gelatin Activation Assay;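 also: readout is fluorescence of quenched fluorescein gelatin cut by activated MMP9, 30 min activation at 37 °C, inhibition relative to DMSO-only controls with EDTA as blank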
Type: biochemical
Parameters: made in house; host or cells: COS-1 (proMMP9); E. coli (MMP3)
SETTINGS: proMMP9 from COS-1 cells; read-out: ProMMP9/MMP3 DQ gel, IC50
QUANTITY: IC50 (µM)

Answered cases to consult:
| COMPOUND | ENDPOINT UNIT | IC50 |
| --- | --- | --- |
| COc1ccc(OC)c(Nc2nc(-c3c[nH]c4ncccc34)cs2)c1 [Example 73] | µM | 17.9 |
| CCOc1ccccc1Nc1nc(-c2c(C)nc3ncccn23)cs1 [Example 52] | µM | 3.3 |
| COc1ccc(Nc2nc(-c3sc(NC(C)=O)nc3C)cs2)c(OC)c1 [Example 23] | µM | 26.2 |
| COc1ccccc1Nc1nc(-c2cnc3cnccn23)cs1 [Example 75] | µM | 17.9 |
| CC(=O)Nc1nc(C)c(-c2csc(Nc3ccccc3OC(F)(F)F)n2)s1 [Example 31] | µM | 3.3 |

I: CC(=O)Nc1nc(C)c(-c2csc(Nc3ccccc3Cl)n2)s1 [Example 39]
II: CCOc1ccccc1Nc1nc(-c2cnc3ncccn23)cs1 [Example 71]
Challenge: Please state the entry with greater IC50 among I and II . # answer = label of selected item
Response given: I
(I: 17.1 µM, II: 6.9 µM)

1: CCC(=O)Nc1nc(C)c(-c2csc(Nc3ccccc3OC)n2)s1 [Example 58]
2: COc1ccccc1Nc1nc(-c2oc(C)nc2C)cs1 [Example 44]
3: CNc1nc(C)c(-c2csc(Nc3ccccc3OC)n2)s1 [Example 35]
4: CCOc1ccccc1Nc1nc(-c2cccnc2)cs1 [Example 53]
5: COc1ccc(OC)c(Nc2nc(-c3sc(NC(C)=O)nc3C)cs2)c1 [Example 61]
Challenge: Ordering: ascending IC50. Order the labels as requested and list them.
Response given: 5, 1, 4, 3, 2

A: COc1ccccc1Nc1nc(-c2sc(NS(C)(=O)=O)nc2C)cs1 [Example 34]
B: COc1ccccc1Nc1nc(C2(C)CC3(CC(C)(C)OC3=O)C(=O)O2)cs1 (stereo not shown) [Example 69]
Challenge: Select the item with the higher value of IC50 from the options A and B listed. Mark your answer with the label of the selected entry.
Response given: B

1: CCOc1ccccc1Nc1nc(-c2sc(NC(=O)CC)nc2C)cs1 [Example 47]
2: CCc1ccccc1Nc1nc(-c2sc(NC(C)=O)nc2C)cs1 [Example 62]
3: COc1ccccc1Nc1nc(-c2cnccc2C)cs1 [Example 29]
Challenge: Highest IC50 first, then in falling order down to the smallest. // rank by listing labels in the order requested
Response given: 3, 1, 2

----------
TEST SYSTEM: proMMP9(67-444;ΔFnII) (SEQ ID NO:5) (Homo sapiens, UniProt P14780, DEL216-390)
Construct: amino acid pairs including: 29-215/391-444, 67-215/391-444, and 20-215/391-445, respectively; start methionine (N)
ASSAY NOTES: ThermoFluor binding assay with proMMP9(67-444;ΔFnII)
QUANTITY: Kd (µM)

Known results for molecules:
| STRUCTURE STRING | Kd / µM |
| --- | --- |
| COc1ccc(OC)c(Nc2nc(-c3cccnc3)cs2)c1 | 17.9 |
| COc1ccccc1Nc1nc(-c2c[nH]c3ncccc23)cs1 | 10.8 |
| CC(=O)Nc1nc(C)c(-c2csc(Nc3ccccc3OC(C)C)n2)s1 | 1.29 |
| COc1ccccc1Nc1nc(-c2ccc(-c3ccccc3)s2)cs1 | 13.1 |

a: COc1ccccc1Nc1nc(-c2sc(NC(=O)c3ccccc3)nc2C)cs1
b: Cc1nc(N)sc1-c1csc(Nc2ccccc2OC(C)C)n1
c: COc1ccc(OC)c(Nc2nc(-c3c[nH]c4ncccc34)cs2)c1
d: COc1ccc(F)cc1Nc1nc(-c2sc(NC(C)=O)nc2C)c(Br)s1
Challenge: Parameters: sort_field (Kd), sort_dir (desc). Returns: the labels arranged in the requested order.
Response given: c, a, b, d
(c: 15.9 µM, a: 4.05 µM, b: 1.15 µM, d: 0.376 µM)

----------
TEST SYSTEM: proMMP13(1-268) (SEQ ID NO:7) (Homo sapiens)
QUANTITY: Kd (µM)

I: COc1ccc(F)cc1Nc1nc(-c2c(C)nc(C)n2C)cs1 [Example 42]
II: Cc1nc(N)sc1-c1csc(Nc2cccc(C(N)=O)c2)n1 [Example 8]
Challenge: Which shows the larger Kd value: I or II ? Field: selected label. Fill in the label of the entry you choose.
Response given: II
(II: 26.9 µM, I: 5.35 µM)

a: COc1ccccc1Nc1nc(-c2ccc(-c3ccccc3)s2)cs1 [Example 43]
b: CCc1nc(N)sc1-c1nc(Nc2ccccc2OC)sc1C [Example 11]
Challenge: Among a and b , whose measured Kd is the smaller figure? Selection: enter the item's label.
Response given: a

----------
TEST SYSTEM: proMMP9(67-444;ΔFnII) (SEQ ID NO:5) (Homo sapiens, UniProt P14780, DEL216-390)
Construct: amino acid pairs including: 29-215/391-444, 67-215/391-444, and 20-215/391-445, respectively; start methionine (N)
Sequence (P14780 with tags, fused parts or gaps DEL216-390): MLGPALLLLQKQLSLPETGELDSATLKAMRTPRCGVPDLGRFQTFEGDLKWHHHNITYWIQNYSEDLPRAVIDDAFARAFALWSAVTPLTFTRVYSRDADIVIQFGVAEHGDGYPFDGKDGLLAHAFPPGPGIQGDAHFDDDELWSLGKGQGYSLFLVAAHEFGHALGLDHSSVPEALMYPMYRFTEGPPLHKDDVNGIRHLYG
ASSAY NOTES: ThermoFluor binding assay with proMMP9(67-444;ΔFnII)
Experimental: The experiments were carried out using instruments available from Johnson & Johnson Pharmaceutical Research & Development, LLC. TF dye used in all experiments was […] (1,8-ANS) (Invitrogen: A-47). Columns 12 and 24 were used as DMSO reference and contained no compound. […] Following compound dispense, protein and dye solutions were added to achieve the final assay volume of 3 μL. […]
pKd: −log10 of the molar value.
QUANTITY: pKd

| MOLECULE | QUANTITY | VALUE REPORTED |
| --- | --- | --- |
| CCOc1ccccc1Nc1nc(-c2cn3ccccc3n2)cs1 | pKd | 4.18 |
| COc1ccccc1Nc1nc(-c2cccnc2)cs1 | pKd | 4.65 |
| COc1ccccc1Nc1nc(-c2sc(NC(C)C)nc2C)cs1 | pKd | 5.35 |
| COc1ccc(F)cc1Nc1nc(-c2ccc(N3CCN(C4CC4)CC3)nc2)cs1 | pKd | 5.41 |
| COc1ccccc1Nc1nc(-c2cnc3cnccn23)cs1 | pKd | 5.00 |

I: CC(=O)Nc1nc(C)c(-c2csc(Nc3cc(F)ccc3OC(C)C)n2)s1
II: COc1ccc(Nc2nc(-c3sc(N)nc3C)cs2)c(OC)c1
Challenge: Hi, I'm comparing I with II and wondering which one has the bigger number for pKd. Any idea? Lab note: record the label of whichever item you select.
Response given: I
(I: 5.53, II: 5.33)
